The reported numbers originate from patent US11286268B1.

- TARGET_UNDER_TEST: recombinant eIF4E (Homo sapiens (Human), UniProt P06730)
- Sequence (P06730 whole entry): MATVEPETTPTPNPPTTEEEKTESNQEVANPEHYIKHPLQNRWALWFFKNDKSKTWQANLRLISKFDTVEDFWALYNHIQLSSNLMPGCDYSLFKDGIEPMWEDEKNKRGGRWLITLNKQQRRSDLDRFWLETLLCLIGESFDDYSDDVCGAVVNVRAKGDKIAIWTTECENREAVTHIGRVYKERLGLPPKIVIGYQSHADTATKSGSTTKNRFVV
- PROCEDURE_SUMMARY: Fluorescence polarization competition assay for eIF4E binding potency
- CONDITION_NOTES: inhibition of eIF4E/EDA-m7GDP-ATTO-550 binding by 50%; Table 4B calculated values; read-out: IC50
- Experimental: Compounds were screened for eIF4E binding potency using a fluorescence polarization competition assay. All binding reactions were performed in fluorescence polarization buffer (FPB) containing 20 mM Tris pH 7.5, 100 mM NaCl, 1 mM DTT, and 0.02% Tween-20. Final binding reactions contained 75 nM recombinant eIF4E (Beryllium, custom order), 20 nM EDA-m^7GDP-ATTO-550 (Jena Bioscience, NU-827-550) and varying concentrations of the inhibitory compound of interest. […]
PARAMETER: IC50 (nM)

# example entries with known answers
>>> observed_measurement("Cc1nc2cc(CN(C)C)cc(C#N)c2c(=O)n1CCOc1ccc(Cl)cc1-c1ccnc2c(C(=O)O)csc12 [compound 512]")
71.8
>>> observed_measurement("Cc1cc(-c2cc(Cl)ccc2OCCn2c(C)nc3cc(C(F)(F)F)c(OCC(F)(F)F)c(C#N)c3c2=O)c2scc(C(=O)O)c2n1 [compound 1074]")
17.4
>>> observed_measurement("Cc1c(CN(C)C)c(C(F)(F)F)cc2nc(C)n(CCOc3ccc(Cl)cc3-c3ccnc4c(C(=O)O)csc34)c(=O)c12 [compound 620]")
36.9
>>> observed_measurement("N#Cc1cccc2ncn(CCOc3ccc(Cl)cc3-c3cccc(C(=O)O)c3)c(=O)c12 [compound 73]")
83.2
>>> observed_measurement("Cc1nc2ccc(F)c(C#N)c2c(=O)n1CCOc1ccc(Cl)cc1-c1ccnc2c(C(=O)O)csc12 [compound 245]")
25.6
>>> observed_measurement("Cc1nc2cc(F)c(F)c(C#N)c2c(=O)n1CCOc1cc(F)c(Cl)cc1-c1ccnc2c(C(=O)O)csc12 [compound 506]")
68.9
>>> observed_measurement("Cc1cc(-c2cc(Cl)ccc2OCCn2c(C)nc3cc(Cl)c(Cl)c(C#N)c3c2=O)c2scc(C(=O)O)c2n1 [compound 582]")
12.7
>>> observed_measurement("COc1cc(-c2cc(Cl)ccc2OCCn2c(C)nc3cc(C(F)(F)F)c(CN4CCN(C)CC4)c(C#N)c3c2=O)c2scc(C(=O)O)c2n1 [compound 638]")
4.46
>>> observed_measurement("Cc1cc(-c2cc(Cl)ccc2OCCn2c(C)nc3nc(C(F)(F)F)c(N4CCN(C)CC4)cc3c2=O)c2scc(C(=O)O)c2n1 [compound 849]")
14.5

(I) Cc1cc(-c2cc(Cl)ccc2OCCn2c(C)nc3cnc(-c4ccc5ncsc5c4)c(C#N)c3c2=O)c2scc(C(=O)O)c2n1 [compound 993]
(II) Cc1nc2cc(C(F)(F)F)c(N3CCN(CCO)CC3)c(C#N)c2c(=O)n1CC#Cc1ccc(Cl)cc1-c1ccnc2c(C(=O)O)csc12 [compound 859]
(III) Cc1cc(C)nc(-c2c(C(F)(F)F)cc3nc(C)n(CCOc4ccc(Cl)cc4-c4cc(C)nc5c(C(=O)O)csc45)c(=O)c3c2C#N)c1 [compound 905]
(IV) Cc1cc(-c2cc(Cl)ccc2OCCn2c(C)nc3c(C(F)(F)F)cc(Cl)nc3c2=O)c2scc(C(=O)O)c2n1 [compound 680]
(V) O=C(O)c1cccc(-c2cc(Cl)ccc2OCCn2cnc3nnccc3c2=O)c1 [compound 18]
// sort entries: IC50, high to low Reply format: the labels, ordered as requested. V, IV, I, III, II
